Attribution: PubChem BioAssay

# target_or_test_system: Alpha-bungarotoxin (Bungarus multicinctus) (UniProt P60615)
# Sequence (P60615 whole entry, looked up): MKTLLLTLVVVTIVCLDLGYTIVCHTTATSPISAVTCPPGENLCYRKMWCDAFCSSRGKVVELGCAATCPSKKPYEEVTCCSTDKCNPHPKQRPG
# test_summary: compounds binding labelled alpha-BTX control protein – biochemical, small-molecule microarray, Alexa647 label, 635/667 nm fluorescence, artefact control for SMM control protein annotation, profiling panel (AID 1117)
# experimental_conditions: alpha-BTX-A647 binding fluorescence, higher = more signal

molecule: C=C(COC)C(=O)CC[C@@H](OC(=O)c1ccccc1-c1ccccc1C(=O)O)c1ccc(CO)o1
composite z-score: 0.206
//
molecule: CCOC(=O)C1=C[C@@H](C(C)(C)C)N(S(=O)(=O)c2ccc(C)cc2)[C@H]1c1ccc(Cl)c(Cl)c1
composite z-score: 1.35
//
molecule: [N-]=[N+]=NCc1ccccc1C[C@]1(C(=O)N2CCOCC2)N=C(c2ccc(OCCCO)cc2)O[C@H]1c1ccccc1
composite z-score: 1.02
//
molecule: COCCOC(=O)N1C(=O)[C@@]2(c3ccccc31)[C@H](C(=O)N1CCCCCCC1)[C@H]1C(=O)O[C@H](c3ccccc3)[C@H](c3ccccc3)N1[C@@H]2c1ccccc1OCCO
composite z-score: 2.36
//
molecule: CCCC[C@H]1OB(O)C[C@H]2C1=C(COc1ccccc1)C[C@H]1C(=O)N(Cc3ccccc3)C(=O)[C@H]12
composite z-score: 1.04
//
molecule: COCCOC(=O)N1C(=O)[C@@]2(c3cc(C#CCCO)ccc31)[C@H](C(=O)NC[C@H](O)c1ccccc1)[C@H]1C(=O)O[C@H](c3ccccc3)[C@H](c3ccccc3)N1[C@@H]2c1ccc(OCCO)cc1
composite z-score: 0.895
//
molecule: C=C(C(=O)CC[C@@H](OC(=O)c1cccnc1)c1ccc(OCCO)cc1)C(C)C
composite z-score: 0.46
//
molecule: COc1ccc(C#Cc2ccc3c(c2)[C@]2(C(=O)N3)[C@H](C(=O)N3CCN(c4ncccn4)CC3)[C@H]3C(=O)O[C@H](c4ccccc4)[C@H](c4ccccc4)N3[C@@H]2c2ccc(O)cc2)cc1
composite z-score: 0.531
//
molecule: [N-]=[N+]=NCc1ccccc1[C@H]1OC(c2ccc(OCCCO)cc2)=N[C@@]1(Cc1ccccc1)C(=O)O
composite z-score: 0.96
//
molecule: O=C1C[C@@](C(=O)O)(c2ccc([N+](=O)[O-])cc2)[C@@H](c2ccc(CO)cc2I)N1C1CCCCC1
composite z-score: 1.28
//
molecule: CO[C@H]1O[C@H](CO)[C@@H](OC(=O)Nc2ccc(C(F)(F)F)cc2)[C@H](OC(=O)Nc2ccccc2)[C@@H]1OC(=O)Nc1ccccc1
composite z-score: 0.462
//
molecule: C=C(C(=O)CC[C@@H](OC(C)=O)c1ccc(OCCO)cc1)C(C)C
composite z-score: 0.227
//
molecule: OCCCc1cc[n+](Cc2cccc(OC(F)(F)F)c2)cc1
composite z-score: 0.718
//
molecule: COc1cc(CO)cc(I)c1O[C@H]1C=C(C(=O)NCCO)C[C@@H](N(CCc2cccc(F)c2)C(=O)CCC2CCCC2)[C@@H]1O
composite z-score: -0.242
//
molecule: Oc1ccc2cc[n+](Cc3cccc(OC(F)(F)F)c3)cc2c1
composite z-score: 0.266
//
molecule: CC(C)CNC(=O)[C@@]1(C)c2ccccc2C(=O)N(C(C)C)[C@H]1c1ccc(CO)cc1
composite z-score: -0.018
//
molecule: C=CCC(OC(C)=O)[C@@H]1[C@@H](N(Cc2cc3ccccc3o2)C(=O)c2cccc3ccccc23)c2cc(OCCCO)ccc2N1C(=O)Cc1ccc2ccccc2c1 (stereo not given in full)
composite z-score: 0.474
//
molecule: CN(C)CCCC[C@@H]1NC(=O)[C@@H]2C[C@H](C(=O)NCCCCCN)[C@H](c3ccc(O)cc3)N2C1=O
composite z-score: 1.19
//
molecule: [N-]=[N+]=Nc1ccccc1[C@@H]1OC(c2ccc(OCCCO)cc2)=N[C@]1(CCS(=O)(=O)c1ccccc1)C(=O)O
composite z-score: 1.55
//
molecule: CCN(CC)c1ccc(N2CC=CC34O[C@@H]5/C=C\CCC(C)OC(=O)C5[C@H]3C(=O)N(CCCCCCO)[C@@H]4C2=O)cc1 (stereo not given in full)
composite z-score: -1.04

###

# test_summary: viability profiling in MM1S myeloma cells – cell-based, resazurin fluorescence, basal, 24 h, PK04 Diversity Set, profiling panel (AID 1174);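 also: MM1S multiple myeloma cell line; test concentration not given here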
# experimental_conditions: higher = more signal, called active from +8 up or from −8 down

smiles_entry: CO[C@H]1O[C@H](CO)[C@@H](OC(=O)Nc2cccc(F)c2)[C@H](OC(=O)Nc2ccccc2-c2ccccc2)[C@@H]1OC(=O)Nc1ccccc1-c1ccccc1
z-score: -2.52
--
smiles_entry: C=C[C@H](OC)[C@@H](OC(=O)Nc1ccc(SC)cc1)c1ccc(OCCO)cc1
z-score: -0.895
--
smiles_entry: COc1ccccc1CN1C(=O)c2ccccc2[C@](Cc2ccccc2I)(C(=O)NC2CC2)[C@@H]1c1ccc(CO)cc1
z-score: -0.185
--
smiles_entry: COc1ccc([Si](C)(C)[C@@H]2[C@@H](CCn3cc([C@H](O)c4ccccc4)nn3)O[C@]3(C(=O)N(C)c4ccccc43)[C@H]2C)cc1
z-score: -2.34

###

# test_summary: growth effects on S. cerevisiae YJM789 – YJM789 clinical isolate, OD600, 24 h, basal, primary screen (AID 1089);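 also: growth of clinical yeast isolate S. cerevisiae YJM 789 seeded 1000 cells per well; test concentration not given here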
# experimental_conditions: higher = more signal, called active from +8 up or from −8 down
The source made the active and inactive calls.
z-score overview
property: z-score

compound: C=CCN1C(=O)[C@@]2(O[C@@H](CCO)[C@H]([Si](C)(C)c3ccc(OC)cc3)[C@H]2C)c2cc(N3C(=O)COc4ccccc43)ccc21
measured_result: 1.64 (inactive)
//
compound: NC(=O)NCC#Cc1ccc2c(c1)[C@]1(C(=O)N2)[C@H](c2ccccc2OCCO)N2[C@H](c3ccccc3)[C@H](c3ccccc3)OC(=O)[C@H]2[C@@H]1C(=O)N1CCCCCCC1
measured_result: 0.456 (inactive)
//
compound: CCCCCCCCCCC(O)C1C=CC2C(=O)N(c3ccccc3)C(=O)C2N1Nc1ccc([N+](=O)[O-])cc1 (stereo not given)
measured_result: 0.0819 (inactive)
//
compound: C[C@]1(C(=O)NCC(F)(F)F)c2ccccc2C(=O)N(Cc2cc(F)cc(C(F)(F)F)c2)[C@H]1c1ccc(CO)cc1
measured_result: 0.49 (inactive)
//
compound: COc1ccc([Si](C)(C)[C@@H]2[C@@H](CCn3cc([C@H](O)c4ccccc4)nn3)O[C@]3(C(=O)N(C)c4ccccc43)[C@H]2C)cc1
measured_result: -0.842 (inactive)
//
compound: COCC1=C([C@H](O)CCc2ccccc2)[C@H](CO)[C@@H]2C(=O)N(Cc3ccccc3)C(=O)[C@@H]2C1
measured_result: 0.226 (inactive)
//
compound: O=C(NCC(F)(F)F)[C@@H]1c2ccccc2C(=O)N(Cc2ccccc2)[C@H]1c1ccc(CO)cc1
measured_result: -0.526 (inactive)
//
compound: O=C(NCc1ccccc1)[C@@H]1c2ccccc2C(=O)N(C2CCCCC2)[C@H]1c1ccc(CO)cc1
measured_result: -0.406 (inactive)
//
compound: O=C1O[C@@H](c2ccccc2)[C@@H](c2ccccc2)N2[C@@H](c3ccccc3OCCO)[C@]3(C(=O)Nc4ccc(C#CC5(O)CCCCCC5)cc43)[C@@H](C(=O)NC[C@H](O)c3ccccc3)[C@H]12
measured_result: 1.77 (inactive)
//
compound: CN1C(=O)C2C=CC(C(O)C(c3ccccc3)c3ccccc3)N(Nc3ccccc3)C2C1=O (stereo not given)
measured_result: -0.272 (inactive)
//
compound: O=P(NCC1(CC2(c3ccccc3)CO2)CC1)(c1ccccc1)c1ccccc1 (stereo not given)
measured_result: -0.468 (inactive)
//
compound: [N-]=[N+]=Nc1ccccc1[C@@H]1OC(c2ccc(OCCCO)cc2)=N[C@]1(CCS(=O)(=O)c1ccccc1)C(=O)O
measured_result: 1.57 (inactive)
//
compound: C=CCN1Cc2ccccc2C[C@]2(N=C(c3ccc(OCCCO)cc3)O[C@@H]2c2ccccc2)C1=O
measured_result: -6.17 (inactive)
//
compound: CN(C)CCCCCCNC(=O)[C@@H]1C[C@@H]2C(=O)NCC(=O)N2[C@@H]1c1cccc(OCCO)c1
measured_result: 0.116 (inactive)
//
compound: Cc1cccc(/C=C/C=O)c1
measured_result: 0.897 (inactive)
//
compound: Cc1c(NC(=O)/C(C#N)=C/C=C/c2ccccc2)c(=O)n(-c2ccccc2)n1C
measured_result: 0.243 (inactive)
//
compound: Cc1ccc(S[C@]2(C(=O)NCC(F)(F)F)CC(=O)N(C3Cc4ccccc4C3)[C@@H]2c2ccc(CO)cc2I)cc1
measured_result: 0.0775 (inactive)
//
compound: CC1(C)C(=O)C(c2ccccc2)=C2CN3C(=O)N(CCc4ccccc4)C(=O)C3(Cc3ccccc3)C=C21 (stereo not given)
measured_result: 0.672 (inactive)
//
compound: CC(C)[Si]1(C(C)C)O[C@@H](c2ccccc2)c2cc(-c3ccc(-c4ccc(Cl)c(Cl)c4)o3)nc(CCc3ccccc3)c21
measured_result: 0.149 (inactive)
//
compound: CC(=O)NCCCC[C@@H]1NC(=O)[C@@H]2C[C@H](C(=O)NCCCCCC[N+](C)(C)C)[C@H](c3cccc(OCCO)c3)N2C1=O
measured_result: 0.801 (inactive)
